Assay: Small-animal PET imaging
Settings: BALB/c nude, mouse, tumor (HT-1080-FAP plus HT-1080-SSTR2 xenograft), iv, 7.4 MBq, total radioactivity, tumor uptake (PET), 4 h after injection, i.v. approx 7.4 MBq, 3 mice/group
Positions of bridges follow the written chain, without caps; N, C: chain ends. Non-standard residues stand in square brackets, D forms with d. Residues, ends and D or L forms follow the SMILES beside them. *: point of attachment. DOTA = O=C(O)CN1CCN(CC(=O)O)CCN(CC(=O)*)CCN(CC(=O)O)CC1; dPhe(4-NHCONH2) = NC(=O)Nc1ccc(C[C@@H](N)C(=O)O)cc1; Phe(4-Cl) = N[C@@H](Cc1ccc(Cl)cc1)C(=O)O
measurement-type: tissue uptake at 4 h (%ID/g)
One number for each entry, in %ID/g.

Consider the compound shown here: C[C@@H](O)[C@@H]1NC(=O)[C@H](CCCCN)NC(=O)[C@@H](Cc2ccc(NC(N)=O)cc2)NC(=O)[C@H](Cc2ccc(O)cc2)NC(=O)[C@H](NC(=O)[C@H](Cc2ccc(Cl)cc2)NC(=O)CN2CCN(CC(=O)O)CCN(CC(=O)O)CCN(CC(=O)O)CC2)CSSC[C@@H](C(=O)N[C@H](Cc2ccc(O)cc2)C(N)=O)NC1=O [^68Ga-DOTA-LM3, metal not drawn, reference compound] ({DOTA}-[Phe(4-Cl)][dC]Y[dPhe(4-NHCONH2)]KTC[dY]-NH2; disulfide 2-7) What is its recorded tissue uptake at 4 h?
4.46

Sourced from paper PMC10924156
